- measurement.description: NCI Yeast Anticancer Drug Screen. Data for the mec2-1 strain (AID 157)
- protocol.conditions: S. cerevisiae mec2-1 strain, at 50.0 µM (retest, dose inferred, filed as 5.0)
The panel holds about 79,000 compounds, 15% with a hit somewhere; the sample as a whole holds those more often. Calls of active or inactive are those of the source. Cut-off read from the data, not from the text of the source: active = growth inhibition above about 70%; inactive = the rest.
Response enum: 1 (yes) = active, 0 (no) = inactive

Would you please look over these solved cases?
compound: COC(=O)Nc1cn2ccc(C(Cl)=C(Cl)Cl)cc2n1
class: 0 (no)

compound: CC1CC(C)(C)CC(OCCN2CCCCC2)(c2ccccc2)C1 (stereo unspecified)
class: 0 (no)

compound: Cc1cc(=O)oc2c(C)c3occc(=O)c3cc12
class: 0 (no)

compound: O=C1Nc2ccc(Br)cc2C1=Nc1ccc2c(c1)OCO2
class: 0 (no)

compound: CCCCc1nnc(NS(=O)(=O)c2ccc(C)cc2)s1
class: 1 (yes)

Ask | Please share the test call associated with `NC(N)=NS(=O)(=O)c1ccc(Nc2c3ccccc3nc3c(C(=O)NCCO)cccc23)cc1` .
Reply | 0 (no)

---

- measurement.description: NCI Yeast Anticancer Drug Screen. Data for the rad50EPP+ strain (AID 151);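 note: 0% = growth of vehicle-treated control cultures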
- protocol.conditions: S. cerevisiae rad50 mutant strain, at 33.0 µM, active compounds read high
About 79,000 compounds went through this panel and 15% of them were active in at least one assay; those are over-represented in the sample as a whole.
assay.endpoint: growth inhibition (%)
Give just the number in %; leave the unit off.

Example entries and their recorded answers appear below.
molecule: CS(=O)(=O)SCc1ccc([N+](=O)[O-])cc1
growth inhibition / %: 99
--
molecule: Cc1cc(S(=O)(=O)Nc2nnc3cnc4ccccc4n23)c(S)cc1Cl
growth inhibition / %: -57
--
molecule: c1ccc2c(OCC3CO3)cccc2c1 (stereo unspecified)
growth inhibition / %: 93
--
molecule: CCCCOP(=O)(CCCP(=O)(OCCCC)OCCCC)OCCCC
growth inhibition / %: -3
--
molecule: CCCC(=O)Oc1ccc(/C=N/NC(N)=S)nc1
growth inhibition / %: -11

Kindly review the next molecule as well.
Ask | Looking for the measured growth inhibition of `CCCCOC(=O)Nc1ccc(C)c(NC(=O)OCCCC)c1` , can you help?
Reply | 36

---

- measurement.description: NCI Yeast Anticancer Drug Screen. Data for the rad50 strain (AID 155);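 note: 0% = growth of vehicle-only cultures of the same strain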
- protocol.conditions: S. cerevisiae rad50 strain growth inhibition; at 50.0 µM (retest, dose inferred, filed as 5.0); active compounds read high
This is part of a sample that, as a whole, favours compounds with a hit. Of some 79,000 tested, about 15% had one in any assay.
Let's look at some compounds and their measured growth inhibition.
Give just the number in %; leave the unit off.

compound: O=C1OC(C2=CC(=O)c3ccccc3C2=O)C(Cl)=C1Cl (configuration not stated)
growth inhibition (%): 44
//
compound: c1ccc2[nH]c(-c3cscn3)nc2c1
growth inhibition (%): -2
//
compound: O=C1c2ccccc2C(=O)N1CCCC(=O)n1cc(F)c(=O)[nH]c1=O
growth inhibition (%): 66

Ask | Looking for the measured growth inhibition of `S=c1[nH]c2cc3ccccc3cc2[nH]1` , can you help?
Reply | 86

Ask | Looking for the measured growth inhibition of `Cc1ccccc1N=C(NO)c1ccccc1` , can you help?
Reply | 33

Ask | Looking for the measured growth inhibition of O=C(O)C1CC(c2ccccc2)=NN1c1ccccc1 (configuration not stated) , can you help?
Reply | 84

Ask | Looking for the measured growth inhibition of `Cc1ccc(NCCNCCO)c2c(=O)c3cc(O)ccc3sc12` , can you help?
Reply | 99

---

- measurement.description: NCI Yeast Anticancer Drug Screen. Data for the sgs1 strain (AID 173);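 note: 0% = growth of vehicle-only control cultures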
- protocol.conditions: S. cerevisiae sgs1 mutant, at 100.0 µM
About 79,000 compounds went through this panel and 15% of them were active in at least one assay; those are over-represented in the sample as a whole. Active and inactive are the calls of the source. No stated cut-off is given here; in the data, active means growth inhibition above about 70%; inactive means the rest.
Response enum: Y for active, N for inactive

Would you please look over these solved cases?
compound: CC(C)CCCC(C)C1CCC2C3CCC4=CC(=O)/C(=C\O)CC4(C)C3CCC12C (configuration not stated)
class: N
--
compound: Nc1n[n+]([O-])c2ccc(Cl)cc2[n+]1[O-]
class: Y
--
compound: Cc1nc2ccc(N=NN(C)C)cc2[nH]1
class: Y

Ask | Please share the test call associated with `c1ccc2[nH]c(-c3cscn3)nc2c1` .
Reply | N

---

- measurement.description: NCI Yeast Anticancer Drug Screen. Data for the mec2-1 strain (AID 157)
- protocol.conditions: S. cerevisiae mec2-1 strain, at 11.0 µM, active compounds read high
This is part of a sample that, as a whole, favours compounds with a hit. Of some 79,000 tested, about 15% had one in any assay.
assay.endpoint: growth inhibition (%)
Give just the number in %; leave the unit off.

molecule: CCOC(=O)C1N=[N+](c2ccccc2)C(=O)/C1=C\n1c(=S)[nH]c2ccc([N+](=O)[O-])cc21 (configuration not stated)
obs.value: 2

Ask | Looking for the measured growth inhibition of `O=c1[nH]c2ccc(Cl)cc2o1` , can you help?
Reply | -60

Ask | Looking for the measured growth inhibition of CCOC(=O)C(Br)C(Br)c1ccccc1Cl (configuration not stated) , can you help?
Reply | 47

Ask | Looking for the measured growth inhibition of `NC(=S)NC(=S)Nc1ccccc1` , can you help?
Reply | 2

Ask | Looking for the measured growth inhibition of `O=C(/C=C\c1cccc(C(F)(F)F)c1)c1ccccc1` , can you help?
Reply | 0

Ask | Looking for the measured growth inhibition of O=C1c2cccnc2C(=O)C2C3C=CC(C3)C12 (configuration not stated) , can you help?
Reply | 87

Ask | Looking for the measured growth inhibition of `COc1ccc(C(=O)Oc2ccccc2Br)cc1` , can you help?
Reply | -10

Ask | Looking for the measured growth inhibition of OC1(c2ccccc2)CCCc2ccc(Cl)cc21 (configuration not stated) , can you help?
Reply | 0

---

- measurement.description: NCI Yeast Anticancer Drug Screen. Data for the rad50EPP+ strain (AID 151);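 note: 0% = growth of vehicle-treated control cultures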
- protocol.conditions: S. cerevisiae rad50 mutant strain, at 33.0 µM, active compounds read high
The panel holds about 79,000 compounds, 15% with a hit somewhere; the sample as a whole holds those more often.
Use 30% as the dividing line for growth inhibition, with the line itself on the Criterion met side and lower values as Criterion not met.

Ask | In plain terms: is recorded growth inhibition at least 30% for `O=C(CC(=O)n1nc(-c2ccccc2)c(N=Nc2ccc(Cl)cc2)c1-c1ccccc1)Nc1cccc(Cl)c1` ?
Reply | Criterion not met

Ask | In plain terms: is recorded growth inhibition at least 30% for COC(C(O)CO)C(O)C(O)C(=O)NNc1ccccc1 (configuration not stated) ?
Reply | Criterion met

Ask | In plain terms: is recorded growth inhibition at least 30% for `Clc1ccc(NCNC2Nc3ccccc3N2)cc1Cl` ?
Reply | Criterion met

Ask | In plain terms: is recorded growth inhibition at least 30% for `OCc1ccccc1Cc1ccccc1` ?
Reply | Criterion not met

Ask | In plain terms: is recorded growth inhibition at least 30% for `NC(=S)NC(=S)Nc1ccccc1` ?
Reply | Criterion not met

Ask | In plain terms: is recorded growth inhibition at least 30% for `O=[N+]([O-])c1ccc(N/N=C/Cc2ccccc2)c([N+](=O)[O-])c1` ?
Reply | Criterion met

Ask | In plain terms: is recorded growth inhibition at least 30% for `COc1ccc(/C=C/c2sc3ccccc3[n+]2CCCCI)cc1OC` ?
Reply | Criterion not met

---

- measurement.description: NCI Yeast Anticancer Drug Screen. Data for the sgs1 mgt1 strain (AID 161);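 note: 0% = growth of cultures given vehicle only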
- protocol.conditions: S. cerevisiae sgs1 mgt1 strain, at 50.0 µM (retest, dose inferred, filed as 5.0), active compounds read high
About 79,000 compounds went through this panel and 15% of them were active in at least one assay; those are over-represented in the sample as a whole.
Use 10% as the dividing line for growth inhibition, with the line itself on the criterion met side and lower values as criterion not met.

Would you please look over these solved cases?
molecule: O=C1Nc2ccc(Br)cc2C1=Nc1ccc2c(c1)OCO2
class: criterion not met
--
molecule: Cc1ccc([N+]2=NC(c3ccccc3)=NN(c3ccccc3)C2)cc1
class: criterion met
--
molecule: CCCOC(=O)C(F)C(Br)C(=O)OCCC (stereo unspecified)
class: criterion met
--
molecule: NCCNCCNc1ccc(NCCNCCN)c2c1C(=O)c1c(O)ccc(O)c1C2=O
class: criterion not met
--
molecule: CC[N+](CC)(CC)c1ccccc1
class: criterion not met

Ask | In plain terms: is recorded growth inhibition at least 10% for CC(C)CCCC(C)C1CCC2C3CCC4=CC(=O)/C(=C\O)CC4(C)C3CCC12C (stereo unspecified) ?
Reply | criterion met

Ask | In plain terms: is recorded growth inhibition at least 10% for `Clc1ccc2c(c1)N(CCCN1CCCC13CCCCC3)c1ccccc1S2` ?
Reply | criterion met

---

- measurement.description: NCI Yeast Anticancer Drug Screen. Data for the mlh1 strain (AID 171);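 note: 0% = growth of vehicle-treated control cultures of the same strain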
- protocol.conditions: S. cerevisiae mlh1 strain growth inhibition; at 3.7 µM; active compounds read high
The panel holds about 79,000 compounds, 15% with a hit somewhere; the sample as a whole holds those more often.
assay.endpoint: growth inhibition (%)
Give just the number in %; leave the unit off.

Ask | Looking for the measured growth inhibition of `CC1(C)CC(=O)C(/C=N/c2nc(-c3ccccc3)cs2)=C(O)C1` , can you help?
Reply | 3

Ask | Looking for the measured growth inhibition of `CN(C)Cc1cc(N=Nc2ccc(Cl)cc2)ccc1OC(=O)c1ccccc1` , can you help?
Reply | 2

Ask | Looking for the measured growth inhibition of COc1ccc(C2C3=C(COC3=O)OC(C)(C)Oc3cc4c(cc32)OCO4)cc1OC (stereo not given) , can you help?
Reply | 0

Ask | Looking for the measured growth inhibition of C=C1CCC(O)C/C1=C/C=C1\CCCC2(C)C1CCC2C(C)CCCC(C)C (stereo not given) , can you help?
Reply | -26

Ask | Looking for the measured growth inhibition of `O=c1ccc2ccccc2c2ccccc12` , can you help?
Reply | 55

meta.source: PubChem BioAssay (NCI)
